Test system: MOLT-4 leukemia
Test: NCI-60 one-dose screen, 48 h
Settings: 10 µM unless noted
Compounds without any hit were thinned out: in the full panel of roughly 83,000, 20% have a hit. Active and inactive are the calls of the source. How the source made its calls: active means growth percent below 10; inactive means the rest.
The categories you may choose from are true (1) = active, false (0) = inactive

Some solved entries appear below for comparison.
CC(C)(C)n1cc(-c2ccnc(NCCCNS(=O)(=O)c3ccccc3)c2)c(-c2cccc(O)c2)n1: false (0)
COc1ccc(-c2nc(N3CCCC3=O)sc2Br)cc1OC: false (0)

q: For COc1cc(C(=O)/C=C/c2ccc3nc(-c4cc(F)cc(F)c4)sc3c2)cc(OC)c1OC , what call appears in the results of this test?
a: false (0)

q: For Cc1nc2ncccc2nc1Nc1ccc(S(=O)(=O)Nc2ccccn2)cc1 , what call appears in the results of this test?
a: false (0)

Cited source: PubChem BioAssay (NCI)
